B1: USP39 (parent)
chain: FQGSMRIFTKKLPHPDLPAEEKEQ

Variants of: B1
run-description: protein stability index of a GFP-peptide fusion (GPS, HEK-293T) (PSI 1-6); higher = more stable;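 also: lentivirally expressed fusions sorted by FACS into six bins by GFP to DsRed ratio, PSI derived from sequencing read proportions per bin multiplied by bin number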
condition-details: c terminus: a fixed tail appended
Answer each item with its documented protein stability index.
Numbers only.

mutation_name=G3R value=3.64

Parameters: items (list). Returns: protein stability index for each item.
1. K22L
2. A19L
3. Q24N

A)
1. 1.78
2. 2.25
3. 2.12

Values were extracted from the supplement of paper PMC10567573.
